METHOD: qHTS assay to identify small molecule antagonists of the estrogen related receptor (ERR) signaling pathway from Tox21 library (AID 1224848); also: nearly all actives have a fitted effect of over 50% in size
CONDITION_INFO: ERR reporter cell line, luciferase antagonist mode, 18 h; series mostly up to 92.4 µM
Inconclusive results are not listed. The source made the active and inactive calls. Calls follow the shape of the dose curve; as a rule, active = well fitted inhibition curve with a large enough effect in the repeat runs; inconclusive = weak or mixed curves; inactive = no such curve, though single readings can be large or run the other way.
Outcome codes: active, inactive

- COMPOUND: "O=C(Nc1ccc(Cl)c(Cl)c1)c1cc(Cl)cc(Cl)c1O"
  CLASSIFICATION: "active"
- COMPOUND: "CC(C)c1ccc(O)c(C(C)C)c1"
  CLASSIFICATION: "inactive"
- COMPOUND: "C[C@@H]1CC[C@H]2C(C)(C)[C@H]3C[C@@]12CC[C@@]3(C)O"
  CLASSIFICATION: "inactive"
- COMPOUND: "Cc1cc2c(C(C)C)c(O)c(O)c(C=O)c2c(O)c1-c1c(C)cc2c(C(C)C)c(O)c(O)c(C=O)c2c1O"
  CLASSIFICATION: "active"
- COMPOUND: "Cc1cccc(N(C)C)c1"
  CLASSIFICATION: "inactive"
- COMPOUND: "Cc1cncc(C)c1"
  CLASSIFICATION: "inactive"
- COMPOUND: "CCC1CCCCC1"
  CLASSIFICATION: "inactive"
- COMPOUND: "CCN(CC)CCOc1ccc(C(O)(Cc2ccc(Cl)cc2)c2ccc(C)cc2)cc1 (stereo not drawn)"
  CLASSIFICATION: "active"
- COMPOUND: "C[C@]12CC[C@H]3C(=CCc4cc(O)ccc43)[C@@H]1CCC2=O"
  CLASSIFICATION: "active"
- COMPOUND: "CN1CN(C)CN(C)C1"
  CLASSIFICATION: "inactive"
- COMPOUND: "NC(=O)c1ccccc1N"
  CLASSIFICATION: "inactive"
- COMPOUND: "Cc1ccc(CCn2c3c(c4cc(Cl)ccc42)CN(C)CC3)cn1"
  CLASSIFICATION: "inactive"
- COMPOUND: "O=C1OC(OC(=O)c2cccnc2Nc2cccc(C(F)(F)F)c2)c2ccccc21 (stereo not drawn)"
  CLASSIFICATION: "inactive"
- COMPOUND: "CCOC(OCC)C(=O)c1ccccc1"
  CLASSIFICATION: "inactive"
- COMPOUND: "Clc1cc(Cl)c(-c2c(Cl)c(Cl)cc(Cl)c2Cl)cc1Cl"
  CLASSIFICATION: "inactive"
- COMPOUND: "CCOC(=O)[C@@](C)(N)Cc1ccc(O)c(O)c1"
  CLASSIFICATION: "inactive"
- COMPOUND: "CCCCCCCCCCCCCCCC"
  CLASSIFICATION: "inactive"
- COMPOUND: "O=C1OC(=O)c2cccc3cccc1c23"
  CLASSIFICATION: "inactive"
- COMPOUND: "Cc1nc(Nc2ncc(C(=O)Nc3c(C)cccc3Cl)s2)cc(N2CCN(CCO)CC2)n1"
  CLASSIFICATION: "active"
- COMPOUND: "COC(=O)CC(C)CCC=C(C)C (stereo not drawn)"
  CLASSIFICATION: "inactive"
- COMPOUND: "C=C(C)CCCC"
  CLASSIFICATION: "inactive"
- COMPOUND: "Brc1ccccc1-c1ccccc1"
  CLASSIFICATION: "inactive"
- COMPOUND: "O=C1NCCN1CCN1CCC(c2cn(-c3ccc(F)cc3)c3ccc(Cl)cc23)CC1"
  CLASSIFICATION: "active"
- COMPOUND: "CC1(C)C(=O)N(Br)C(=O)N1Br"
  CLASSIFICATION: "inactive"
- COMPOUND: "Cc1cnccn1"
  CLASSIFICATION: "inactive"
- COMPOUND: "C=CC/C=C/C/C=C/C/C=C/C"
  CLASSIFICATION: "inactive"
- COMPOUND: "CCOC(=O)CC(C)O (stereo not drawn)"
  CLASSIFICATION: "inactive"
- COMPOUND: "CC1CCCCN1CCCOC(=O)c1ccc(OC2CCCCC2)cc1 (stereo not drawn)"
  CLASSIFICATION: "active"
